test system: Clostridium difficile; assay: growth AUC relative to DMSO control (median of replicates) (fraction); higher = more growth (less inhibition), active = hit call of the paper; details: 20 µM; 24 h
Would you mind telling me the reported growth AUC of each entry?
One number for each entry.

Guide cases for growth AUC, answers given:
INSERT INTO results (compound, experimentalresult) VALUES
  ('Clc1cccc(Cl)c1Cl', 0.996),
  ('CCCCc1c(C)nc(N(C)C)[nH]c1=O', 0.997),
  ('COCc1cnc(C2=NC(C)(C(C)C)C(=O)N2)c(C(=O)O)c1 (configuration not stated)', 0.973),
  ('CC(C)(COCc1cccc(Oc2ccccc2)c1)c1ccc(OC(F)(F)Br)cc1', 1.01),
  ('Cc1ccc(NC(=O)N(C)C)cc1Cl', 1.01),
  ('Clc1ccccc1-c1nnc(-c2ccccc2Cl)nn1', 0.997),
  ('Cc1cnc2c(C(=O)O)c(Cl)ccc2c1', 0.995),
  ('COC(=O)C(C)N(C(=O)Cc1ccccc1)c1c(C)cccc1C (configuration not stated)', 0.977),
  ('Nc1cccc(Cl)c1Cl', 0.999),
  ('CC1(C)[C@H](C(=O)O[C@H](C#N)c2cccc(Oc3ccccc3)c2)[C@@H]1C=C(Br)Br', 1.02);

// each listed compound needs a value for growth AUC
1. CCOP(=S)(OCC)Oc1ccc(S(C)=O)cc1 (configuration not stated)
2. COC(=O)N(OC)c1ccccc1COc1ccn(-c2ccc(Cl)cc2)n1
3. CNC(=O)/C(=N/OC)c1ccccc1Oc1ccccc1
4. CC1(C(=O)Nc2ccc(O)c(Cl)c2Cl)CCCCC1
5. c1cc2c3c(cccc3c1)CC2
6. CCOP(=S)(OCC)OP(=S)(OCC)OCC

OUT:
0.994
0.989
1
0.98
0.993
0.986

// each listed compound needs a value for growth AUC
1. CCOC(=O)C(C)OC(=O)c1cc(Oc2ccc(C(F)(F)F)cc2Cl)ccc1[N+](=O)[O-] (configuration not stated)
2. Cc1ccccc1[N+](=O)[O-]
3. O=C(O)c1cc(Cl)ccc1Cl
4. CCCN(CCC)c1c([N+](=O)[O-])cc(S(N)(=O)=O)cc1[N+](=O)[O-]

OUT:
1: 0.978; 2: 1; 3: 1.02; 4: 0.975
